Biological target: T1, TLR8 WT (hTLR8) (human, UniProt Q9NR97 27-827)
T1 sequence: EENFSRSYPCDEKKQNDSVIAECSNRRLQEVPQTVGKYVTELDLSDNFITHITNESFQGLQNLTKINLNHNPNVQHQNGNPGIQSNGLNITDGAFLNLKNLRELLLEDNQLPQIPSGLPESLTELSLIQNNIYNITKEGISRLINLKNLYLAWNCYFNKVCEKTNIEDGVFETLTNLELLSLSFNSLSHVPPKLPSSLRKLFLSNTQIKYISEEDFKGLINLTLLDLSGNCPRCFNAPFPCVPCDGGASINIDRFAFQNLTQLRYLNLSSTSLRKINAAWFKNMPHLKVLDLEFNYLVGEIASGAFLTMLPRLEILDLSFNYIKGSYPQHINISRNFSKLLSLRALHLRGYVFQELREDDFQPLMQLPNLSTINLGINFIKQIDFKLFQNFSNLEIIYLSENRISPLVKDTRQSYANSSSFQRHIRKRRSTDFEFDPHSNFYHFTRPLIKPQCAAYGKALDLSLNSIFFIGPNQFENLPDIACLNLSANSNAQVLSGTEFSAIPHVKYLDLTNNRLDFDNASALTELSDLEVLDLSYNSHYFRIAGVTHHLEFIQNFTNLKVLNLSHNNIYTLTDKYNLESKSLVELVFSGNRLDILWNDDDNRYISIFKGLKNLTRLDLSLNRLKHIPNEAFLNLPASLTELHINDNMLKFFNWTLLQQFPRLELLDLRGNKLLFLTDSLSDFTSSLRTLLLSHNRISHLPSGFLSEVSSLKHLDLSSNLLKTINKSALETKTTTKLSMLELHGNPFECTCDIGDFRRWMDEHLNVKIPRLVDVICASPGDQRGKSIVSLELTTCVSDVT
Experiment: SPR; average; runs 5±1, 7±1, 5±1, 12±3, 7±1, 11±2; SPR with recombinant TLR7/TLR8; buffer, pH and temperature not in the material
Settings: protein: recombinant; chain copies: 2; single-stranded
MEASURED METRIC: pKd
API: returns pKd as number; meaning -log10 of concentration in mol/L.

Could you share which pKd value was measured for GCC (XNA, 2'-OMe G1, DNA C2, DNA C3; phosphorothioate linkages, stereo-random) [GCC-v4 PS (mGdCdC)] ? 5.10
